B1: PWWP2B (parent)
chain: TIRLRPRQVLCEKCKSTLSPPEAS

Variants of: B1
Procedure text: protein stability index of a GFP-peptide fusion (GPS, HEK-293T) (PSI 1-6); higher = more stable;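 further: lentivirally expressed fusions sorted by FACS into six bins by GFP to DsRed ratio, PSI derived from sequencing read proportions per bin multiplied by bin number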
Test conditions: c terminus: a fixed tail appended
If the reported protein stability index equals or exceeds 3, assign label 1. If not, assign label 0.

Request: Confirm if protein stability index reported for the variant I2R is 3 or above.
Response: label 1

Request: Follow-up item: R7E
Response: label 1

Request: Follow-up item: T1V
Response: label 0

Request: Follow-up item: P6M
Response: label 0

Request: Follow-up item: S16F
Response: label 0

Request: Follow-up item: C14M
Response: label 1

Request: Follow-up item: E22F
Response: label 0

Request: Follow-up item: K13E
Response: label 1

Request: Follow-up item: P6W
Response: label 0

Request: Follow-up item: E22W
Response: label 0

Request: Follow-up item: S16W
Response: label 0

Request: Follow-up item: C11R
Response: label 1

Request: Follow-up item: I2H
Response: label 1

Request: Follow-up item: A23H
Response: label 0

Request: Follow-up item: E12V
Response: label 0

Request: Follow-up item: I2A
Response: label 1

Request: Follow-up item: T17R
Response: label 0

Request: Follow-up item: E22R
Response: label 0

Request: Follow-up item: I2D
Response: label 1

All values here come from the supplement of paper PMC10567573.
